Where these numbers come from: patent US7829560B2

- TGT: p38α (Homo sapiens, UniProt Q16539)
- Construct: p38 MAP Kinases are recombinant human full-length proteins with an amino-terminal GST fusion; GST (N); purchased Upstate Biotechnology Inc; host or cells: E. coli
- Sequence (Q16539 whole entry, the tested form may be a part): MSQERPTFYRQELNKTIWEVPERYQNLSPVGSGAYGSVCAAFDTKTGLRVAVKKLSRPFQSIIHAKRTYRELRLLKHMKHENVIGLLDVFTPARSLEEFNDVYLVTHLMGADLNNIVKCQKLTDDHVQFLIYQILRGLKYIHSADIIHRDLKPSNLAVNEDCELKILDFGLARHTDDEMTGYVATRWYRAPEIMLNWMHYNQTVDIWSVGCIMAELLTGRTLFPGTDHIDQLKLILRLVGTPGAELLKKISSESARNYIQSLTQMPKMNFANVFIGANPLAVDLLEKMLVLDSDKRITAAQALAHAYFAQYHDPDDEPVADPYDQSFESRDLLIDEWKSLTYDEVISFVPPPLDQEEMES
- TEST: p38 MAP Kinase assay: inhibition of ATF2 phosphorylation, ELISA
- Assay type: biochemical
- CONDITIONS_USED: 10 uM; substrate ATF2; read-out: [ENZ] P38 ALPHA, PCT INH, ELISA (10 uM;ATF2) (Percent)
- Text: Compounds of the invention are screened for the ability to inhibit ATF2 phosphorylation by p38 MAP Kinase in vitro. […]
EXPERIMENTAL_READOUT: inhibition at 10 µM (%)

smiles_input=Cc1cccc(N2CCN(c3cccc(C(=O)Nc4ccc(OCCN5CCOCC5)c5ccccc45)c3)CC2)c1 output_unit=% recorded_number=25

(A) O=C(Nc1ccc(OCCN2CCOCC2)c2ccccc12)c1cccc(-c2cccc(C(F)(F)F)c2)c1
(B) Cc1cc(C(=O)Nc2ccc(OCCN3CCOCC3)c3ccccc23)cc(Cl)n1
Response body: label of entry with the larger inhibition at 10 µM; valid values A , B . Write down the label attached to your selection.
A
(A: 59%, B: 3%)
